All values here come from paper doi:10.1101/2022.05.23.493001v4.

Test system: STING in THP-1 cells (endogenous)
TEST: cells
PARTICULARS: Homo sapiens, THP-1, 6 h, read-out: EC50 IFN-β THP-1
READOUT NAME: EC50
Please answer using a numeric value trailed by its unit.

Ask: Annotate the compound `CSc1c(Cl)ccc2c(=O)c3ccc(C(C)(C)C)cc3n(CC(=O)O)c12` with its measured EC50.
Result: 6.6 µM
